methodDescription: Cytotoxicity against human SH-SY5Y cells after 72 hrs by MTT assay
Assay type: functional, cell-based
pIC50: −log10 of the molar value.

- inputSmiles: "N#Cc1cnn2c(Nc3cccc(N(CCCl)CCCl)c3)cc(CN3CCOCC3)nc12"
  relationOperator: "="
  pIC50: 4.21
- inputSmiles: "C#Cc1cccc(Nc2cc(CN(CCCl)CCCl)nc3c(C#N)cnn23)c1"
  relationOperator: "<"
  pIC50: 4.00
- inputSmiles: "CN(C)Cc1cc(Nc2ccc(N(CCCl)CCCl)cc2)n2ncc(C#N)c2n1"
  relationOperator: "="
  pIC50: 5.06
- inputSmiles: "N#Cc1cnn2c(Nc3cccc(Cl)c3)cc(CN(CCCl)CCCl)nc12"
  relationOperator: "<"
  pIC50: 4.00
- inputSmiles: "N#Cc1cnn2c(Nc3ccccc3Br)cc(CN(CCCl)CCCl)nc12"
  relationOperator: "<"
  pIC50: 4.00
- inputSmiles: "N#Cc1cnn2c(Nc3cccc(F)c3)cc(CN(CCCl)CCCl)nc12"
  relationOperator: "<"
  pIC50: 4.00
- inputSmiles: "CC1CCN(Cc2cc(Nc3cccc(N(CCCl)CCCl)c3)n3ncc(C#N)c3n2)CC1"
  relationOperator: "="
  pIC50: 4.59
- inputSmiles: "N#Cc1cnn2c(Nc3ccc(C(F)(F)F)cc3)cc(CN(CCCl)CCCl)nc12"
  relationOperator: "<"
  pIC50: 4.00
- inputSmiles: "CCOC(=O)c1ccc(Nc2cc(CN(CCCl)CCCl)nc3c(C#N)cnn23)cc1"
  relationOperator: "="
  pIC50: 4.19
- inputSmiles: "CN(C)C1CCN(Cc2cc(Nc3cccc(N(CCCl)CCCl)c3)n3ncc(C#N)c3n2)CC1"
  relationOperator: "="
  pIC50: 4.81
